Test system: AMBEL (Ragweed, Common)
Assay: Preemergence herbicidal evaluation
Format: in vivo, Ambrosia artemisifolia
Conditions: rate 0.0313 kg/ha; rated 4-5 weeks after treatment
Excerpt: Results of herbicide evaluation are expressed on a rating scale (0-9). The scale is based upon a visual observation of plant stand, vigor, malformation, size, chlorosis and overall plant appearance as compared with a control. […] The compounds evaluated are reported by compound number given in Example 37.
Hi there, I'd appreciate the recorded Preemergence herbicidal rating AMBEL for every entry that follows.
Answers are plain numbers.

Cn1c(C(F)(F)F)cc(=O)n(-c2cc(N=C3SCC(=O)N3Cc3ccco3)c(Cl)cc2F)c1=O    0.0
CCOC(=O)CN1C(=O)C(CC(=O)OC(C)C)SC1=Nc1cc(-n2c(=O)cc(C(F)(F)F)n(C)c2=O)c(F)cc1Cl (stereo not shown)    0.0
Cn1c(C(F)(F)F)cc(=O)n(-c2cc(N=C3SCC(=O)N3[C@@H](Cc3ccccc3)C(=O)O)c(Cl)cc2F)c1=O    0.0

Please find the next molecule below.
Q: Find the measured Preemergence herbicidal rating AMBEL of C=CCN1C(=O)C(CC(=O)OC(C)C)SC1=Nc1cc(-n2c(=O)cc(C(F)(F)F)n(C)c2=O)c(F)cc1Cl (stereo not shown) and report it.
Ans: 1.0

###

system: ABUTH (Velvetleaf); assay: Postemergence herbicidal evaluation; assay type: in vivo, Abutilon theophrasti; settings: postemergence, rate 0.0313 kg/ha
property: ABUTH herbicidal rating
One number for each entry.

In the examples that follow, each entry is paired with its recorded ABUTH herbicidal rating.
CCOC(=O)CN1C(=O)C(F)SC1=Nc1cc(-n2c(=O)cc(C(F)(F)F)n(C)c2=O)c(F)cc1Cl (centres unmarked)    9.0
CCOC(=O)CN1C(=O)C(C)SC1=Nc1cc(-n2c(=O)cc(C(F)(F)F)n(C)c2=O)c(F)cc1Cl (centres unmarked)    9.0
O=C1CSC(=Nc2cc(N3C(=O)C4=C(CCCC4)C3=O)c(F)cc2Cl)N1c1ccccc1    6.0
CCC1SC(=Nc2cc(-n3c(=O)cc(C(F)(F)F)n(C)c3=O)c(F)cc2Cl)N(C)C1=O (centres unmarked)    6.5

Now for a further molecule.
Q: Answer with reported ABUTH herbicidal rating of CN1C(=O)C(CC(=O)NS(C)(=O)=O)SC1=Nc1cc(-n2c(=O)cc(C(F)(F)F)n(C)c2=O)c(F)cc1Cl (centres unmarked)
Ans: 4.0

###

Hi there, I'd appreciate the recorded IPOHE herbicidal rating for every entry that follows.
Test system: IPOHE (Morningglory, Ivyleaf)
Assay: Postemergence herbicidal evaluation
Assay type: in vivo, Ipomoea hederacea
Conditions: postemergence, rate 0.0158 kg/ha
Experimental: In the tests, seedling plants are grown in jiffy flats for about two weeks. The test compounds are dispersed in 50/50 acetone/water mixtures containing 0.5% TWEEN®20, a polyoxyethylene sorbitan monolaurate surfactant of Atlas Chemical Industries, in sufficient quantities to provide the equivalent of about 0.0156 kg to 0.500 kg per hectare of active compound when applied to the plants through a spray nozzle operating at 40 psi for a predetermined time. […]
One number for each entry.

Please give IPOHE herbicidal rating for each item listed below.
1. CCOC(=O)C(c1ccc(Cl)cc1)N1C(=O)CSC1=Nc1cc(-n2c(=O)cc(C(F)(F)F)n(C)c2=O)c(F)cc1Cl (racemic) [Compound 79]
2. CCOC(=O)CN1C(=O)C(=C(C)C)S/C1=N/c1cc(-n2c(=O)cc(C(F)(F)F)n(C)c2=O)c(F)cc1Cl [Compound 20]
3. COC(=O)[C@H](Cc1ccc([N+](=O)[O-])cc1)N1C(=O)CSC1=Nc1cc(-n2c(=O)cc(C(F)(F)F)n(C)c2=O)c(F)cc1Cl [Compound 78]
4. COC(=O)[C@H](Cc1ccccc1)N1C(=O)CS/C1=N/c1cc(-n2c(=O)cc(C(F)(F)F)n(C)c2=O)c(F)cc1Cl [Compound 72]
5. CCOC(=O)CN1C(=O)C(=C2CCCC2)SC1=Nc1cc(-n2c(=O)cc(C(F)(F)F)n(C)c2=O)c(F)cc1Cl [Compound 18]

Ans:
1. 9.0
2. 9.0
3. 9.0
4. 9.0
5. 2.0
